Source: paper PMC9308932

experimental target: CYP3A (Homo sapiens, UniProt P08684)
Sequence (P08684 2-503): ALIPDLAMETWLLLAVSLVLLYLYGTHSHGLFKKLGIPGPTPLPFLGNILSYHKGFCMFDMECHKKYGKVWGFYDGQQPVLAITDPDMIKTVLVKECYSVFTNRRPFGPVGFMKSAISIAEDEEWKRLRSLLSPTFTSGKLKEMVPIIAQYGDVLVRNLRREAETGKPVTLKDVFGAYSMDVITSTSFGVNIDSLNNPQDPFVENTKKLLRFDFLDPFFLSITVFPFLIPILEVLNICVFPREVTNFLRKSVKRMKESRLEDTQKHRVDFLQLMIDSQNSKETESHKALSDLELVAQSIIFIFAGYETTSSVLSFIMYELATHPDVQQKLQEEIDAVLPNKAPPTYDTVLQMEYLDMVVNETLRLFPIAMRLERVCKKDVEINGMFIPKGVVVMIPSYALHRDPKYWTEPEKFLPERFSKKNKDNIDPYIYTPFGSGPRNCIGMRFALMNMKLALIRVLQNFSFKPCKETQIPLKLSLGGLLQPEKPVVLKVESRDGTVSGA
experiment: Concentration-dependent inhibition of CYP3A (testosterone 6β-hydroxylation) in human liver microsomes
Format: in vitro ADME
condition: human, human liver microsomes, probe testosterone (6β-hydroxylation)
observation type: pIC50
Give bare numbers, as −log10 of the molar value.

Give the reported pIC50 for O=C(/C=C/c1ccc(O)c(O)c1)OC[C@H]1O[C@@H](OCCc2ccc(O)c(O)c2)[C@H](O)[C@@H](O[C@@H]2O[C@H](CO)[C@@H](O)[C@H](O)[C@H]2O)[C@@H]1O [plantainoside D, Plantainoside D] (system: CYP3A (Homo sapiens, UniProt P08684)).
4.83

----------
experimental target: CYP3A (Homo sapiens)
experiment: Concentration-dependent inhibition of CYP3A (testosterone 6β-hydroxylation) in human liver microsomes
Assay type: in vitro ADME
condition: human, human liver microsomes, probe testosterone (6β-hydroxylation)
observation type: pKi
Numbers only, as −log10 of the molar value.

Query: pKi; subject: O=C(/C=C/c1ccc(O)c(O)c1)OC[C@H]1O[C@@H](OCCc2ccc(O)c(O)c2)[C@H](O)[C@@H](O[C@@H]2O[C@H](CO)[C@@H](O)[C@H](O)[C@H]2O)[C@@H]1O [plantainoside D, Plantainoside D]
5.15
